Provenance of the data: paper PMC9088073

protocol_summary: in vitro
measurement_context: chlorocebus sabaeus
value_kind: CC50

{"columns": ["compound", "value_kind", "value_reported"],
 "data": [
  ["CCCOc1ccc(-c2cc(OCCN3CCN(Cc4ccccc4)CC3)c3c(OC)cc(OC)cc3n2)cc1", "CC50", "> 100 µM"],
  ["CCCOc1ccc(-c2cc(OCCN3CCCCC3)c3cc(OC)c(OC)cc3n2)cc1", "CC50", "11.1 µM"],
  ["CCCOc1ccc(-c2cc(OCCN(CC)CC)c3ccccc3n2)cc1", "CC50", "21.2 µM"],
  ["CCCOc1ccc(-c2cc(OCCN3CCN(Cc4ccccc4)CC3)c3cc(OC)cc(OC)c3n2)cc1", "CC50", "> 100 µM"],
  ["CCN(CC)CCOc1cc(-c2ccccc2)nc2ccccc12 [Compound 12a]", "CC50", "64.7 µM"],
  ["CCCOc1ccc(-c2cc(OCCN3CCc4ccccc4C3)c3c(OC)cc(OC)cc3n2)cc1", "CC50", "> 100 µM"],
  ["CCCOc1ccc(-c2cc(OCCN3CCCCC3)c3c(OC)ccc(OC)c3n2)cc1", "CC50", "23.8 µM"],
  ["CCN(CC)CCCC(C)Nc1ccnc2cc(Cl)ccc12 (stereo not shown) [Chloroquine, chloroquine, reference compound]", "CC50", "83.4 µM"],
  ["CCCOc1ccc(-c2cc(OCCN3Cc4ccccc4C3)c3c(OC)cc(OC)cc3n2)cc1", "CC50", "> 100 µM"],
  ["CCCOc1ccc(-c2cc(OCCN3CCc4cc(OC)c(OC)cc4C3)c3c(OC)cc(OC)cc3n2)cc1", "CC50", "> 100 µM"],
  ["CCCOc1ccc(-c2cc(OCCN(CC)CC)c3c(OC)cc(OC)cc3n2)cc1", "CC50", "6.71 µM"],
  ["CCCOc1ccc(-c2cc(OCCN3CCc4cc(OC)ccc4C3)c3c(OC)cc(OC)cc3n2)cc1", "CC50", "> 100 µM"],
  ["CCCOc1ccc(-c2cc(OCCN(CC)CC)c3c(OC)c(OC)c(OC)cc3n2)cc1 [Compound 10a]", "CC50", "23.8 µM"],
  ["COc1cc(O)c2c(=O)cc(-c3ccc(OCCCN4CCN(C)CC4)c(N)c3)n(C)c2c1", "CC50", "40 µM"],
  ["CCCOc1ccc(-c2cc(OCCN3CCc4cc(OC)c(OC)cc4C3)c3cc(OC)cc(OC)c3n2)cc1", "CC50", "> 100 µM"],
  ["CCCOc1ccc(-c2cc(OCCN3CCCC3)c3cccc(OC)c3n2)cc1", "CC50", "30.8 µM"],
  ["CCCOc1ccc(-c2cc(OCCN3CCCC3)c3c(OC)ccc(OC)c3n2)cc1", "CC50", "89.8 µM"],
  ["CCCOc1ccc(-c2cc(OCCN(CC)CC)c3cc(OC)cc(OC)c3n2)cc1", "CC50", "> 100 µM"],
  ["CCCOc1ccc(-c2cc(OCCN3CCN(Cc4ccccc4)CC3)c3ccccc3n2)cc1", "CC50", "> 100 µM"],
  ["CCCOc1ccc(-c2cc(OCCN3CCCC3)c3c(OC)cc(OC)cc3n2)cc1", "CC50", "16.1 µM"],
  ["CCCOc1ccc(-c2cc(OCCN3CCCC3)c3cc(OC)cc(OC)c3n2)cc1", "CC50", "> 100 µM"],
  ["CCCOc1ccc(-c2cc(OCCN(CC)CC)c3cc(OC)c(OC)cc3n2)cc1", "CC50", "70.3 µM"],
  ["CCCOc1ccc(-c2cc(OCCN(CC)CC)c3c(OC)ccc(OC)c3n2)cc1", "CC50", "24.6 µM"],
  ["CCCOc1ccc(-c2cc(OCCN3CCN(Cc4ccccc4)CC3)c3cccc(OC)c3n2)cc1", "CC50", "> 100 µM"],
  ["CCCOc1ccc(-c2cc(OCCN3CCNCC3)c3cccc(OC)c3n2)cc1", "CC50", "30.3 µM"],
  ["CCCOc1ccc(-c2cc(OCCN(CC)CC)c3cccc(OC)c3n2)cc1", "CC50", "> 100 µM"],
  ["CCCOc1ccc(-c2cc(OCCN3CCc4cc(OC)c(OC)cc4C3)c3cccc(OC)c3n2)cc1", "CC50", "> 100 µM"],
  ["CCCOc1ccc(-c2cc(OCCN3CCCC3)c3cc(OC)c(OC)cc3n2)cc1", "CC50", "12.9 µM"]
]}
